Catalogue of molecules with associated melting point

>  <molecule>
NC(=O)CC(C(N)=O)(c1ccc(F)cc1)c1ccc(F)cc1

>  <melting point>
192 to 193 °C

$$$$
>  <molecule>
C=C(C)C(=O)Oc1ccc(S(=O)(=O)ON=C(C#N)c2cccs2)cc1

>  <melting point>
165 to 166 °C

$$$$
>  <molecule>
COc1cc([N+](=O)[O-])c(Cl)cc1NC(=O)C1CCNCC1

>  <melting point>
167 to 170 °C

$$$$
>  <molecule>
N#CC(C#N)=CNc1ccc(C(N)=O)cn1

>  <melting point>
215 to 218 °C

$$$$
>  <molecule>
COCCNC(N)=Nc1ccccc1N1CCOCC1

>  <melting point>
125 to 128 °C

$$$$

Item O=[N+]([O-])C=C1C[N+]([O-])=C(c2ccccc2F)c2cc([N+](=O)[O-])ccc2N1 has what recorded melting point? 216 to 220 °C

Item CCOC(=O)c1c(N)nn(-c2c(Cl)cc(C(F)(F)F)cc2Cl)c1N has what recorded melting point? 196 to 197 °C

Item Brc1c(-c2ccccc2)n[nH]c1Sc1ccccc1 has what recorded melting point? 121 to 122 °C

Item COc1ccc(N=C(C)c2ccccc2)cc1 has what recorded melting point? 81 to 82 °C

Item CCCCCCCCCCCCCCOc1ccc(CNc2cccc(CO)c2)cc1 has what recorded melting point? 72 to 75 °C

Item CCc1cc2oc3cc(-c4ccccc4Cl)c4c(c3c2cc1OC)C(=O)NC4=O has what recorded melting point? 252 to 257 °C

Item Cc1cc(Oc2c(Cl)cc(C(F)(F)F)cc2Cl)nn1C(=O)NC1CCCC1 has what recorded melting point? 90 to 92 °C

Item CC(=O)Oc1c(C)c(C)c2c(c1C)C(O)CC(C)(COc1ccc([N+](=O)[O-])cc1)O2 (stereo not given) has what recorded melting point? 139 to 141 °C

Item O=C(Nc1ccc(-n2nc(C(F)(F)F)cc2C(F)(F)F)cc1)c1cc2cc(F)ccc2[nH]1 has what recorded melting point? 253 to 255 °C

Item COc1cc(OC)nc(Oc2c(Cl)cc(Cl)cc2C=O)n1 has what recorded melting point? 132 to 133 °C

Item COc1ccc2c(c1)OCC(Cc1cccnc1)C2=O (stereo not given) has what recorded melting point? 95 to 99 °C

Item CCOC(=O)c1ncc2[nH]c3c(c2c1COC)C(=O)CCC3 has what recorded melting point? 249 to 250 °C

Item Cc1ccc(Nc2nnc(Cc3ccncc3)c3ccccc23)cc1C has what recorded melting point? 180 to 181 °C

Item CCCCN(C)c1c(-c2ccc(OC)cc2)sc2ccccc12 has what recorded melting point? 61 to 62 °C

Item CC(C)(C)c1ccc(C(=O)Nc2cn3nc(NCc4cccnc4)ccc3n2)cc1 has what recorded melting point? 232 to 233 °C

Item O=C(CN1CCN2c3ccccc3Cn3cccc3C2C1)c1ccc(Cl)cc1 (stereo not given) has what recorded melting point? 71 to 74 °C

Item CC(=O)c1cccc(-c2cnn3c(-c4cccc(NC(=O)CC(C)C)c4)ccnc23)c1 has what recorded melting point? 190 to 192 °C

Item COc1ccc(C(=O)Nc2cccc(C(=O)O)c2)c2cc(C(=O)c3ccccc3)oc12 has what recorded melting point? 262 to 263 °C

Item COc1ccc(CCNC(=O)C(F)(F)F)c2c1NC(=O)C2=O has what recorded melting point? 234 to 237 °C

Item CCNC1CN(c2ccc(CCO[Si](c3ccccc3)(c3ccccc3)C(C)(C)C)cc2)S(=O)(=O)c2sc(S(N)(=O)=O)cc21 (stereo not given) has what recorded melting point? 66 °C

Item Cc1cc2c(=O)[nH]c(CCl)nc2cc1Cl has what recorded melting point? 287 to 290 °C
